Endpoint: melting point

Some solved entries appear below for comparison.
                     compound       endpoint     data_value
0   NC(=O)Cc1ccc(OCC(=O)O)cc1  melting point  171 to 173 °C
1  Cc1ccc(-c2ccc(=O)[nH]n2)s1  melting point  231 to 233 °C
2           Cc1ccc(CC(=O)O)o1  melting point    56 to 58 °C

Consider Sc1nnc(-c2cc3ccccc3o2)o1 . Its measured melting point is 249 to 251 °C

---

Consider the following compounds and their measured melting point readings.

Some solved entries appear below for comparison.
>>> df
                                   compound       endpoint     data_value
0             Cc1nc(NN)c2cc(-c3ccccc3)sc2n1  melting point  163 to 165 °C
1    c1ccc(C2COCCN2)cc1 (centres undefined)  melting point    74 to 76 °C
2                CN(c1ccccc1)c1ccccc1C(=O)O  melting point  105 to 107 °C
3                       N#Cc1ccc2c(n1)CCCC2  melting point    69 to 71 °C
4  CC(C)C(NC(=O)c1ccco1)C(=O)O (centres undefined)  melting point  103 to 105 °C

Consider CN(C)C(=O)c1cc(F)c(NN)c(F)c1 . Its measured melting point is 74 to 76 °C

Consider Cn1cccc1-c1csc(N)n1 . Its measured melting point is 79 to 81 °C

Consider CCCCc1ccc(C(=O)CCC(=O)O)cc1 . Its measured melting point is 113 to 115 °C

Consider CCOc1cc(C(=O)O)ccc1OCc1ccncc1 . Its measured melting point is 238 to 240 °C

Consider CC(=O)c1ccc(N2CCCC2=O)cc1 . Its measured melting point is 127 to 131 °C

---

Endpoint: melting point

Some solved entries appear below for comparison.
>>> df
                compound_structure     data_value
0  Cc1nc2ccccc2c(=O)n1-c1ccc(F)cc1  134 to 136 °C
1             CC(C)c1nc(C(=O)O)cs1    56 to 58 °C
2              Nc1nc(-c2ccccc2)no1  149 to 151 °C
3         COc1cc(CCC(=O)O)cc(OC)c1    54 to 56 °C
4                    CCN(CC)C(N)=S   98 to 102 °C
5              Cn1c(S)nc2sccc2c1=O  317 to 319 °C
6          Cc1nnc(S)n1CCS(C)(=O)=O  193 to 195 °C
7             OCc1ncc(-c2ccccc2)o1  117 to 119 °C

Consider COc1cc(N)c(N)cc1OC . Its measured melting point is 126 to 128 °C

---

Consider the following compounds and their measured melting point readings.

>>> df
                   compound       endpoint   data_value
0  COc1ccc(CNS(C)(=O)=O)cc1  melting point  89 to 91 °C

Consider O=C(O)C1CCN(c2ncc(C(F)(F)F)cc2Cl)CC1 . Its measured melting point is 134 to 136 °C

Consider Cc1ccc(Nc2cccc(C(=O)O)c2)nn1 . Its measured melting point is 279 to 281 °C

Consider NCc1ccc(N2CCCC(C(N)=O)C2)cc1 (stereo unspecified) . Its measured melting point is 169 to 171 °C

Consider Cc1cc(N)ccc1C(=O)OC(C)(C)C . Its measured melting point is 69 to 71 °C

Consider COc1ccc(N2CCCNC(=O)C2)cc1 . Its measured melting point is 172 to 174 °C

Consider CSCc1nnc(S)o1 . Its measured melting point is 71 to 73 °C

Consider Cc1cc(Nc2nc3ccccc3nc2Cl)n(-c2ccccc2)n1 . Its measured melting point is 178 to 180 °C

Consider CC(C)c1ccc(OCCC(=O)O)cc1 . Its measured melting point is 113 to 115 °C

Consider NC1CCc2c(O)cccc21 (stereo unspecified) . Its measured melting point is 167 to 169 °C

Consider Nc1cccc(C(=O)NCc2ccccc2F)c1 . Its measured melting point is 204 to 206 °C

Consider Nn1c(S)nnc1-c1cccs1 . Its measured melting point is 216 to 220 °C

Consider Nc1ccc2c(c1)CCO2 . Its measured melting point is 71 to 73 °C
